- experimental-target: human PRMT6 (Homo sapiens)
- Sequence (Q96LA8 with tags, fused parts or gaps): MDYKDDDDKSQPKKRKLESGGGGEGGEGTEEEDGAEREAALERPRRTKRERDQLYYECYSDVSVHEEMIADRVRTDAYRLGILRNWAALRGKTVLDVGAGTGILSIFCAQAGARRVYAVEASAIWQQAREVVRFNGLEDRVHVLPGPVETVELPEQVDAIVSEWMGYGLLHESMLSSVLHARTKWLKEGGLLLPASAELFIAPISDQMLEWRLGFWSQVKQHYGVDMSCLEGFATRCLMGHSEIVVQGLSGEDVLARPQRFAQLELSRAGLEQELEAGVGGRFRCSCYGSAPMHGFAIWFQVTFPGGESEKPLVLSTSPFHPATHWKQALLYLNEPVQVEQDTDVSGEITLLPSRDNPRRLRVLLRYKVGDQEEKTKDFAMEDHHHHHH
- measurement-protocol: biochemical
- assay-setup: biochemical evaluation, peptide substrate; read-out: PRMT6 IC50
pIC50: −log10 of the molar value.
value-kind: pIC50

> print(dat)
                                    compound        result
 1       CNCCN(C)Cc1n[nH]c2cccc(OCCC(C)C)c12  5.52 to 6.00
 2  CNCCN(C)Cc1n[nH]c2ccc(Oc3cccc(Cl)c3)cc12  6.00 to 7.00
 3     CNCCN(C)Cc1n[nH]c2ccc(OCC3CCCCC3)cc12  6.00 to 7.00
 4  CNCCN(C)Cc1n[nH]c2cccc(OCCCC(O)CO)c12 (stereo not shown)  5.52 to 6.00
 5      CNCCN(C)Cc1n[nH]c2ccc(OC3CCOCC3)cc12  6.00 to 7.00
 6      CNCCN(C)Cc1n[nH]c2ccc(C3=CCOCC3)cc12        > 7.00
 7     CNCCN(C)Cc1n[nH]c2ccc(OCc3ccccn3)cc12        > 7.00
 8          CNCCN(C)Cc1n[nH]c2ccc(OCCOC)cc12        > 7.00
 9      CNCCN(C)Cc1n[nH]c2ccc(C3=CCCCC3)cc12        > 7.00
10   CNCCN(C)Cc1n[nH]c2ccc(Oc3ccc(C)cc3)cc12  6.00 to 7.00

----------
- experimental-target: human PRMT6 (Homo sapiens)
- measurement-protocol: biochemical
- assay-setup: single experiment or average of multiple experiments; read-out: PRMT6 biochemical evaluation (numerical)
Cut-off 60 nM on IC50: below means rule met, at or above means rule not met.

> print(dat)
                                   compound   label.class
1   CNCCN(C)Cc1n[nH]c2ccc(OCc3cc[nH]n3)cc12      rule met
2       CNCCN(C)Cc1n[nH]c2ccc(OCCC(C)C)cc12      rule met
3         CNCCN(C)Cc1n[nH]c2ccc(OCCCOC)cc12      rule met
4  CNCCN(C)Cc1n[nH]c2ccc(OCC(C)c3ccccc3)cc12 (centres unmarked)      rule met
5      CNCCN(C)Cc1n[nH]c2ccc(OC3CCOCC3)cc12  rule not met

----------
- experimental-target: human PRMT1 (Homo sapiens, UniProt Q99873)
- Construct: GST-tagged PRMT1; made in house; host or cells: High Five insect cells (baculovirus)
- Sequence (Q99873 other isoform, or with tags, fused parts or gaps): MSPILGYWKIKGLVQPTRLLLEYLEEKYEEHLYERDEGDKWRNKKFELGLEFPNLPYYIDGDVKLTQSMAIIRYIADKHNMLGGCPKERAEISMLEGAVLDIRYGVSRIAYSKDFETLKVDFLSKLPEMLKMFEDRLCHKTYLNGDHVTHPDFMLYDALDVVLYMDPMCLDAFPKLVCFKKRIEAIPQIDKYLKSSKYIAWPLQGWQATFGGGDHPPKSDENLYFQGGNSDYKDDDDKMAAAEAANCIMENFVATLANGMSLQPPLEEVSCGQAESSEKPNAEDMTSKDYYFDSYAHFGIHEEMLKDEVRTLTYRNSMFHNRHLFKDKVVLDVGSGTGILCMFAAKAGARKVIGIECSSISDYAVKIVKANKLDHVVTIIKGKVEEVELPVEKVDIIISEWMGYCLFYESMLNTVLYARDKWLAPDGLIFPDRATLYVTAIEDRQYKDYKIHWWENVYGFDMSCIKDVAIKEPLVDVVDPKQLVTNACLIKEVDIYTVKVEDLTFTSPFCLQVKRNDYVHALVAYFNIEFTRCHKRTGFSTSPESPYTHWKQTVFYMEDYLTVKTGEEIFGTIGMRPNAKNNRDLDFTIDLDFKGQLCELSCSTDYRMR
- measurement-protocol: biochemical
- assay-setup: single experiment or average of multiple experiments; read-out: PRMT1 biochemical evaluation (numerical)
value-kind: IC50 (nM)

> print(dat)
                                smiles.input  measured.number
 1  CNCCN(C)Cc1n[nH]c2ccc(Oc3cccc(OC(C)C)c3)cc12             24.8
 2     CNCCN(C)Cc1n[nH]c2ccc(OCC3CCCCC3)cc12             2000
 3  CNCCN(C)Cc1n[nH]c2ccc(Oc3cccc(OC)c3)cc12             11.9
 4         CNCCN(C)Cc1n[nH]c2ccc(OC(C)C)cc12             2630
 5  CNCCN(C)Cc1n[nH]c2ccc(OCc3ccc(C(F)(F)F)cc3)cc12             91.5
 6  CNCCN(C)Cc1n[nH]c2ccc(OCc3cccc(C(N)=O)c3)cc12               35
 7  CNCCN(C)Cc1n[nH]c2ccc(OCc3ccc(C(C)(C)C)cc3)cc12              203
 8  CNCCN(C)Cc1n[nH]c2ccc(Oc3ccccc3C(F)(F)F)cc12             15.7
 9  CNCCN(C)Cc1n[nH]c2ccc(OCc3cccc(C(C)(C)C)c3)cc12               23
10   CNCCN(C)Cc1n[nH]c2ccc(Oc3cccc(C)c3)cc12               44
11          CNCCN(C)Cc1n[nH]c2ccc(OCCOC)cc12             38.5
12    CNCCN(C)Cc1n[nH]c2ccc(Oc3ccccc3Cl)cc12             64.5
13     CNCCN(C)Cc1n[nH]c2ccc(OCc3ccccn3)cc12             27.2
14  CNCCN(C)Cc1n[nH]c2ccc(Oc3cccc(C#N)c3)cc12             22.5
15     CNCCN(C)Cc1n[nH]c2ccc(OCC3CCOCC3)cc12               11
16            CCOc1ccc2[nH]nc(CN(C)CCNC)c2c1             98.6
17      CN(CCN)Cc1n[nH]c2ccc(OCc3ccccc3)cc12             3.59

----------
- experimental-target: human PRMT1 (Homo sapiens, UniProt Q99873)
- Construct: GST-tagged PRMT1; made in house; host or cells: High Five insect cells (baculovirus)
- measurement-protocol: biochemical
- assay-setup: single experiment or average of multiple experiments; read-out: PRMT1 biochemical evaluation (numerical)
- From the text: General Materials. […] General Procedure for PRMT1 Enzyme Assays on Peptide Substrates. […] The plates were then read in a PerkinElmer TopCount plate reader to measure the quantity of ^3H-labeled peptide bound to the Flashplate surface, measured as disintegrations per minute (dpm) or alternatively, referred to as counts per minute (cpm). […]
Listing of entries alongside the reported IC50.
value-kind: IC50 (nM)

> print(dat)
                                smiles.input  measured.number
 1  CNCCN(C)Cc1n[nH]c2ccc(OCc3ccc(C(C)=O)cc3)cc12               12
 2      CNCCN(C)Cc1n[nH]c2ccc(C3=CCOCC3)cc12             37.4
 3         CNCCN(C)Cc1n[nH]c2ccc(OCCCOC)cc12               19
 4  CNCCN(C)Cc1c2cc(OCc3ccc(C#N)cc3)ccc2nn1C(C)C              182
 5       CNCCN(C)Cc1n[nH]c2ccc(OC3CCCC3)cc12              3.3
 6       CNCCN(C)Cc1n[nH]c2ccc(C3CCCCC3)cc12             55.5
 7  CNCCN(C)Cc1n[nH]c2ccc(Oc3cccc(Cl)c3)cc12             31.6
 8       CNCCN(C)Cc1n[nH]c2cccc(OCCC(C)C)c12             46.5
 9             CNCCN(C)Cc1n[nH]c2ccc(OC)cc12              187
10     CNCCN(C)Cc1n[nH]c2cccc(OCc3ccccc3)c12             13.1

----------
Listing of entries alongside the reported pIC50.
- experimental-target: Human CARM1 (PRMT4) (Homo sapiens, UniProt Q86X55)
- Construct: Flag-CARM1-His; made in house; host or cells: HEK 293F cells (BacMam baculovirus)
- Sequence (Q86X55 1-585 isoform Q86X55-1): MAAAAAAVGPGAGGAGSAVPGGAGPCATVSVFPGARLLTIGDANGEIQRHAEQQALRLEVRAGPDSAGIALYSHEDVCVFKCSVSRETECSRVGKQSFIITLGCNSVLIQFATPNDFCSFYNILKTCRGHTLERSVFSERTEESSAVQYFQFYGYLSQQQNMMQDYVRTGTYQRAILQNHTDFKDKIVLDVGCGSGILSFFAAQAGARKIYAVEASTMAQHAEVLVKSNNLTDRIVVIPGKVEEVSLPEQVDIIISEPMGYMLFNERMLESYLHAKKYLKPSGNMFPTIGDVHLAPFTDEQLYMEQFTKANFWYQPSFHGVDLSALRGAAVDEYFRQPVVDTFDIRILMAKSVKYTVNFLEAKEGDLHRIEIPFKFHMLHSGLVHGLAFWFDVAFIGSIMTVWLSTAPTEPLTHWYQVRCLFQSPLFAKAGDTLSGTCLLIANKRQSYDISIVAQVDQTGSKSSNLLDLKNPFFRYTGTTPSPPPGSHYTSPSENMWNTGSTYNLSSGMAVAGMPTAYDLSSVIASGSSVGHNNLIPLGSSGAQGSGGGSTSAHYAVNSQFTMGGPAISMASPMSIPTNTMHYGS
- measurement-protocol: CARM1 Biochemical Assay
- assay-setup: PRMT4 biochemical evaluation (numerical), single experiment or average of multiple experiments
- Text: General Materials. […] General Procedure for CARM1 Enzyme Assays on Peptide Substrates. […] The plates were then read in a PerkinElmer TopCount plate reader to measure the quantity of ^3H-labeled peptide bound to the Flashplate surface, measured as disintegrations per minute (dpm) or alternatively, referred to as counts per minute (cpm). […]
pIC50: −log10 of the molar value.
value-kind: pIC50

> print(dat)
                                    compound  inequality.operator  measured.number
 1      CNCCN(C)Cc1n[nH]c2ccc(C3=CCOCC3)cc12                    =             6.80
 2  CNCCN(C)Cc1n[nH]c2ccc(Oc3ccc(OC(C)C)cc3)cc12                    =             7.06
 3  CNCCN(C)Cc1n[nH]c2ccc(Oc3ccc(C(F)(F)F)cc3)cc12                    =             5.54
 4      CNCCN(C)Cc1n[nH]c2ccc(C3=CCCCC3)cc12                    =             6.36
 5  CNCCN(C)Cc1n[nH]c2ccc(Oc3ccc(Cl)cc3)cc12                    =             6.48
 6  CNCCN(C)Cc1nn(C(C)C)c2ccc(OCc3ccc(C#N)cc3)cc12                    =             6.44
 7       CNCCN(C)Cc1n[nH]c2ccc(N3CCCCC3)cc12                    =             6.59
 8            CCOc1ccc2[nH]nc(CN(C)CCNC)c2c1                    =             5.38
 9  CNCCN(C)Cc1n[nH]c2ccc(OCC3CCN(C(C)=O)CC3)cc12                    <             5.00
10  CNCCN(C)Cc1n[nH]c2ccc(Oc3ccccc3C(F)(F)F)cc12                    =             6.22
11  CNCCN(C)Cc1n[nH]c2ccc(OC3CCN(C(C)=O)CC3)cc12                    =             6.61
12     CNCCN(C)Cc1n[nH]c2ccc(OCC3CCCCC3)cc12                    <             5.00
13  CNCCN(C)Cc1n[nH]c2ccc(OCc3cccc(C(C)=O)c3)cc12                    =             5.34
14     CNCCN(C)Cc1n[nH]c2ccc(Oc3ccccc3C)cc12                    =             5.75
15   CNCCN(C)Cc1n[nH]c2ccc(OCc3ccn(C)n3)cc12                    =             6.82
16  CNCCN(C)Cc1n[nH]c2ccc(Oc3cccc(C#N)c3)cc12                    =             6.58
17      CNCCN(C)Cc1n[nH]c2ccc(OC3CCOCC3)cc12                    =             6.35
18  CNCCN(C)Cc1n[nH]c2ccc(OC3CCOC3)cc12 (centres unmarked)                    =             6.03
19    CNCCN(C)Cc1n[nH]c2ccc(Oc3ccccc3Cl)cc12                    =             5.63
20  CNCCN(C)Cc1nn(C)c2ccc(OCc3ccc(C#N)cc3)cc12                    =             6.73
21         CNCCN(C)Cc1n[nH]c2ccc(OC(C)C)cc12                    =             5.71
22   CNCCN(C)Cc1n[nH]c2ccc(Oc3ccc(C)cc3)cc12                    <             5.00
23  CNCCN(C)Cc1n[nH]c2ccc(Oc3ccccc3OC(C)C)cc12                    <             5.00
24    CNCCN(C)Cc1n[nH]c2ccc(Oc3ccccc3OC)cc12                    =             6.94
25  CNCCN(C)Cc1n[nH]c2ccc(OCc3ccc(C(N)=O)cc3)cc12                    =             5.38
26  CNCCN(C)Cc1n[nH]c2ccc(Oc3cccc(Cl)c3)cc12                    =             6.41
27           CCCOc1ccc2[nH]nc(CN(C)CCNC)c2c1                    =             5.31
28  CNCCN(C)Cc1n[nH]c2ccc(OCc3ccc(C(C)(C)C)cc3)cc12                    =             5.42
29       CNCCN(C)Cc1n[nH]c2cccc(OCCC(C)C)c12                    =             6.37
30  CNCCN(C)Cc1n[nH]c2ccc(OCc3cccc(C(N)=O)c3)cc12                    =             5.72
31              CNCCN(C)Cc1n[nH]c2ccc(O)cc12                    =             5.21
32     CNCCN(C)Cc1n[nH]c2ccc(OCC3CCOCC3)cc12                    =             6.61
